Provide the recorded B-score binding assay for the entries that follow.
Molecular target: human NTCP (Homo sapiens)
Sequence (Q14973 1-349): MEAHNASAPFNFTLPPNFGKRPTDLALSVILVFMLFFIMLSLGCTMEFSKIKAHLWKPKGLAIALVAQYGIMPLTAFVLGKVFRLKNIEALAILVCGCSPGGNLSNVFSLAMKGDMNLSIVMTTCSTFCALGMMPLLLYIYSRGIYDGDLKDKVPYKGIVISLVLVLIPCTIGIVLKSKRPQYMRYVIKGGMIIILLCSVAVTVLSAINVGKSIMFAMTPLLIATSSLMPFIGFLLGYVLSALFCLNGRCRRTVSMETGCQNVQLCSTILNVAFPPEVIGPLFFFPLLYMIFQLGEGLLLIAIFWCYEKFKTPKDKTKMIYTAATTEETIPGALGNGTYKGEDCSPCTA
Experiment: Screening fluorescent competitive Myrcludex B-FITC binding assay (96-well, 10 µM drug)
Conditions: screen, 10 µM drug, Myrcludex B-FITC binding
Structures can show the parent of a compound that is named as a salt.
One number for each entry.

* O=C(c1ccccc1)c1ccc2n1CCC2C(=O)O (centres unmarked) | -0.614
* CC1CS(=O)(=O)CCN1/N=C/c1ccc([N+](=O)[O-])o1 (centres unmarked) | -0.222
* COC(=O)[C@H](c1ccccc1Cl)N1CCc2sccc2C1 | -1.412
* CNNCc1ccc(C(=O)NC(C)C)cc1 [Procarbazine hydrochloride] | -0.424
* O=C(NCC1CCCCN1)c1cc(OCC(F)(F)F)ccc1OCC(F)(F)F (centres unmarked) [Flecainide acetate] | 0.272

Below are 5 compounds. Give each one its B-score binding assay.
1. COc1ccc2cc(CCC(C)=O)ccc2c1
2. COc1c2occc2c(OC)c2c(=O)cc(C)oc12
3. CCCCCCCCNC(C)C(O)c1ccc(SC(C)C)cc1 (centres unmarked)
4. CC(=O)Oc1cc(C(F)(F)F)ccc1C(=O)O
5. OCc1cc(C(O)CNCCCCCCOCCCCc2ccccc2)ccc1O (centres unmarked)

1: -1.377; 2: -0.883; 3: -2.148; 4: -0.002; 5: -0.999

---

biological target: human NTCP (Homo sapiens, UniProt Q14973); assay: Screening taurocholate uptake assay (96-well, [14C]taurocholate, 10 µM drug); conditions: combined ranking from functional and binding screening assays
Counter-ions that a name gives are not always drawn.
Assign Ranking score to each entry below.
Numbers only.

- O=C1CN(/N=C/c2ccc(-c3ccc([N+](=O)[O-])cc3)o2)C(=O)[N-]1.[Na+] [Dantrolene sodium salt]: 342.783

Batch: Ranking score for all items listed.
1. O=C(NCC1CCCCN1)c1cc(OCC(F)(F)F)ccc1OCC(F)(F)F (stereo not drawn) [Flecainide acetate]
2. CN1CCC(=C2c3ccccc3CC(=O)c3sccc32)CC1 [Ketotifen fumarate]

448.174
425.088

Go through the items and report each one's Ranking score.
1. CC1=NS(=O)(=O)c2cc(Cl)ccc2N1 [Diazoxide]
2. Nc1ccc(C(=O)O)c(O)c1
3. Cc1ccc(C(=O)c2cc(O)c(O)c([N+](=O)[O-])c2)cc1
4. OC(CCCN1CCCCC1)(c1ccccc1)c1ccccc1 [Diphenidol hydrochloride]
5. C[C@H]1O[C@@H](O[C@H]2[C@@H](O)C[C@H](O[C@H]3[C@@H](O)C[C@H](O[C@H]4CC[C@@]5(C)[C@H](CC[C@@H]6[C@@H]5C[C@@H](O)[C@]5(C)[C@@H](C7=CC(=O)OC7)CC[C@]65O)C4)O[C@@H]3C)O[C@@H]2C)C[C@H](O)[C@@H]1O
6. Cc1ccsc1/C=C/C1=NCCCN1C [Morantel tartrate]
7. Cl.Cl.Fc1ccc(C(OCCN2CCN(CCCc3ccccc3)CC2)c2ccc(F)cc2)cc1 [GBR 12909 dihydrochloride]

1. 331.971
2. 360.074
3. 424.338
4. 367.214
5. 426.002
6. 381
7. 416.575

Record Ranking score for all entries; do not skip any.
1. CC(N/C(=N\C#N)Nc1ccncc1)C(C)(C)C (stereo not drawn)
2. CCC(=O)[C@@]1(C)[C@H](C)C[C@H]2[C@@H]3CCC4=CC(=O)C=C[C@]4(C)[C@H]3[C@@H](O)C[C@@]21C [Rimexolone]
3. CCCCN(CCCC)CCC(O)c1cc2c(Cl)cc(Cl)cc2c2cc(C(F)(F)F)ccc12 (stereo not drawn) [Halofantrine hydrochloride]
4. CN[C@@H]1[C@@H](O[C@H]2O[C@H](CO)[C@@H](N)[C@H](O)[C@H]2O)OC2C[C@@H](N)[C@@H](O[C@H]3[C@H](O)[C@@H](O)[C@H](N)C[C@@H]3N)OC2[C@@H]1O (stereo partly drawn)
5. O=C(O)CN(CCN(CC(=O)O)CC(=O)O)CCN(CC(=O)O)CC(=O)O

1: 332.839; 2: 362.647; 3: 393.07; 4: 397.98; 5: 406.409
